Data credit: the supplement of paper PMC9112550

Measured shrunken log2 fold change, listed per entry.
- System: Escherichia coli TOP10
- experimental protocol: shrunken log2 fold change of peptide-encoding DNA abundance (4.5 h post-induction vs induction); higher = less antimicrobial activity (less host growth inhibition)
- details: time post-induction: 4.5 h; library: site-saturation at positions 5, 18, 19, 20
Note: the reply should be a number with no unit written.

Worked cases, shrunken log2 fold change given:
> print(dat)
          polymer.sequence               assay.metric  assay.value
1  RRIRTRPPRLPRPRPRPTQRPRP  shrunken log2 fold change         0.11
2  RRIRERPPRLPRPRPRPTWWPRP  shrunken log2 fold change        0.412

Recorded result, RRIRPRPPRLPRPRPRPPQLPRP , shrunken log2 fold change: 0.378

So, RRIRERPPRLPRPRPRPYIWPRP ? Its shrunken log2 fold change was 0.0553

sequence RRIRRRPPRLPRPRPRPHKEPRP , shrunken log2 fold change observed: 0.0317

In plain terms, RRIRSRPPRLPRPRPRPWIHPRP has a documented shrunken log2 fold change of -0.338

get_value(item= RRIRFRPPRLPRPRPRPTYLPRP , readout=shrunken log2 fold change) returns -0.243

Measured shrunken log2 fold change of RRIRLRPPRLPRPRPRPFRLPRP : -0.0872

The sequence RRIRTRPPRLPRPRPRPQNRPRP showed shrunken log2 fold change equal to -0.199

get_value(item= RRIRDRPPRLPRPRPRPHQNPRP , readout=shrunken log2 fold change) returns -0.303

What the record says about RRIRGRPPRLPRPRPRPSIGPRP : shrunken log2 fold change is 0.0763

Reported shrunken log2 fold change ( RRIRYRPPRLPRPRPRPLFGPRP ) = -0.0957

Please fill in: shrunken log2 fold change reported for RRIRKRPPRLPRPRPRPPNYPRP = -0.19

Consider RRIRLRPPRLPRPRPRPLAQPRP . Its measured shrunken log2 fold change is 0.73

Entry RRIRDRPPRLPRPRPRPRIWPRP — recorded shrunken log2 fold change = 0.53

----------
- System: Escherichia coli TOP10
- experimental protocol: shrunken log2 fold change of peptide-encoding DNA abundance (4.5 h post-induction vs induction); higher = less antimicrobial activity (less host growth inhibition)
- details: time post-induction: 4.5 h; library: site-saturation at positions 5, 18, 19, 20
Below: a set of entries, each annotated with reported shrunken log2 fold change.
A bare number is all that is needed in reply.

Examples with their reported shrunken log2 fold change follow.
> print(dat)
          polymer.sequence  assay.value
1  RRIRWRPPRLPRPRPRPWEKPRP        0.624
2  RRIRGRPPRLPRPRPRPEITPRP        0.542
3  RRIRARPPRLPRPRPRPFAAPRP        0.644

Per the record, RRIRPRPPRLPRPRPRPFLIPRP has shrunken log2 fold change of -0.459

get_value(item= RRIRCRPPRLPRPRPRPWAEPRP , readout=shrunken log2 fold change) returns -0.136

Sure, the documented shrunken log2 fold change for RRIRFRPPRLPRPRPRPMLIPRP is -0.217

----------
- Test system: Escherichia coli TOP10;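 note: peptides expressed intracellularly from a pBAD plasmid library in pooled LB shake-flask culture, induced with 0.3% L-arabinose, DNA abundance read by NGS, three biological replicates, DESeq2 with apeglm shrinkage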
- experimental protocol: shrunken log2 fold change of peptide-encoding DNA abundance (4.5 h post-induction vs induction); higher = less antimicrobial activity (less host growth inhibition)
- details: time post-induction: 4.5 h; library: site-saturation at positions 5, 18, 19, 20
The following sequences are shown together with reported shrunken log2 fold change values.
Write no unit; give the number alone.

Example results:
> print(dat)
          polymer.sequence               assay.metric  assay.value
1  RRIRQRPPRLPRPRPRPDTCPRP  shrunken log2 fold change       0.0121
2  RRIRYRPPRLPRPRPRPHHTPRP  shrunken log2 fold change       -0.418
3  RRIRYRPPRLPRPRPRPMFCPRP  shrunken log2 fold change       -0.297
4  RRIRIRPPRLPRPRPRPDFDPRP  shrunken log2 fold change       -0.137
5  RRIRPRPPRLPRPRPRPIRTPRP  shrunken log2 fold change        0.289
6  RRIRQRPPRLPRPRPRPIDCPRP  shrunken log2 fold change       0.0167
7  RRIRGRPPRLPRPRPRPLGPPRP  shrunken log2 fold change        0.456
8  RRIRNRPPRLPRPRPRPVYLPRP  shrunken log2 fold change       -0.216

RRIRPRPPRLPRPRPRPCARPRP yielded shrunken log2 fold change of 0.0698
